# TARGET OR SYSTEM: T1, Human CD3eg linker (human)
# T1 construct: Single chain: epsilon and gamma subunits of human CD3 joined by a 29-mer linker, Flag-tag at the C-terminus; also called recombinant human CD3
# T1 chain: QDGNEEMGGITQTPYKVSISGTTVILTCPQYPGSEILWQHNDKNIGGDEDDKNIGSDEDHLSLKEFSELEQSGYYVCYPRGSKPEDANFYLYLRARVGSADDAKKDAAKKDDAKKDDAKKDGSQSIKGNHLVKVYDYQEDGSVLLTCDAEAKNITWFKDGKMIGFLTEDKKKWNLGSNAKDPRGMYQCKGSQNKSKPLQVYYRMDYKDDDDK
# EXPERIMENT SUMMARY: Biacore SPR, vs template H183/L072

# BINDER, fold change of affinity
rows = [
    ("H183/L072 VH A100fL (antibody, name in Kabat numbering, V domains shown) VH: QVQLVESGGGLVQPGRSLRLSCAASGFTFSNAWMHWVRQAPGKGLEWVAQIKDKGNAYAAYYAPSVKGRFTISRDDSKNSIYLQMNSLKTEDTAVYYCHYVHYASASTVLPLFGVDAWGQGTTVTVSS VL: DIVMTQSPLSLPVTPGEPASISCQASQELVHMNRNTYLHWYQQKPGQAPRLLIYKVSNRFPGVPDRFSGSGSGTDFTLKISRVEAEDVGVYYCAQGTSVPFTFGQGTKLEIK", "1.2 fold"),
    ("H183/L072 VH V100iA (antibody, name in Kabat numbering, V domains shown) VH: QVQLVESGGGLVQPGRSLRLSCAASGFTFSNAWMHWVRQAPGKGLEWVAQIKDKGNAYAAYYAPSVKGRFTISRDDSKNSIYLQMNSLKTEDTAVYYCHYVHYASASTVLPAFGADAWGQGTTVTVSS VL: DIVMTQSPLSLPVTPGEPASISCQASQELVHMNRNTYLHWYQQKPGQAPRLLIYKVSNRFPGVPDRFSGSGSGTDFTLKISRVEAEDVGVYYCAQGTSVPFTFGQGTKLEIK", "4.6 fold"),
    ("H183/L072 VH F29I (antibody, name in Kabat numbering, V domains shown) VH: QVQLVESGGGLVQPGRSLRLSCAASGFTISNAWMHWVRQAPGKGLEWVAQIKDKGNAYAAYYAPSVKGRFTISRDDSKNSIYLQMNSLKTEDTAVYYCHYVHYASASTVLPAFGVDAWGQGTTVTVSS VL: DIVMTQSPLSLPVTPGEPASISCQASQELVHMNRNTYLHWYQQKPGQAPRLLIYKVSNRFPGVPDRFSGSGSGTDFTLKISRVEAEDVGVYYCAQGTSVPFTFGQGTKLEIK", "0.3 fold"),
    ("H183/L072 VH Y97L (antibody, name in Kabat numbering, V domains shown) VH: QVQLVESGGGLVQPGRSLRLSCAASGFTFSNAWMHWVRQAPGKGLEWVAQIKDKGNAYAAYYAPSVKGRFTISRDDSKNSIYLQMNSLKTEDTAVYYCHYVHLASASTVLPAFGVDAWGQGTTVTVSS VL: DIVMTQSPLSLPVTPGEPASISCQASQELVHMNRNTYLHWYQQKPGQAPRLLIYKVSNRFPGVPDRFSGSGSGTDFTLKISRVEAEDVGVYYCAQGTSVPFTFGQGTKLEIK", "0 fold"),
    ("H183/L072 VH I51P (antibody, name in Kabat numbering, V domains shown) VH: QVQLVESGGGLVQPGRSLRLSCAASGFTFSNAWMHWVRQAPGKGLEWVAQPKDKGNAYAAYYAPSVKGRFTISRDDSKNSIYLQMNSLKTEDTAVYYCHYVHYASASTVLPAFGVDAWGQGTTVTVSS VL: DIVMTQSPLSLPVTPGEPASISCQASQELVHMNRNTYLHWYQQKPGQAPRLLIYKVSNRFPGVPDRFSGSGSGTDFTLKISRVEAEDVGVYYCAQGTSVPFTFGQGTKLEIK", "0 fold"),
]

Every entry's value here was drawn from patent US20210388087A1.
